# clearance annotations
# runDescription: Clearance in rat after iv administration
# Format: ADME, organism-based
# conditionDetails: in vivo
Note: unit L/h/kg is implicit; provide only the numeric part.

Below: 8 molecules and their reported clearance.
molecule | clearance [L/h/kg]
CC1=NC(=O)C(CCN(C(C)C)C(C)C)(c2ccccc2)C2CCCCN12 (stereo unspecified) [ACTISOMIDE] | 0.588
O=P1(N(CCCl)CCCl)NCCCO1 (stereo unspecified) [CYCLOPHOSPHAMIDE ANHYDROUS] | 0.72
CCCCCNC(=O)c1coc([C@H]2[C@@H](Cc3ccccc3CCC(=O)O)[C@@H]3CC[C@H]2O3)n1 | 5.28
N[C@H](C(=O)O)[C@@H]1CC(Cl)=NO1 | 0.312
Cc1cc(=O)n(-c2ccccc2)n1C [ANTIPYRINE] | 0.6
CC[C@H]1OC(=O)[C@H](C)[C@@H](O[C@H]2C[C@@](C)(OC)[C@@H](O)[C@H](C)O2)[C@H](C)[C@@H](O[C@@H]2O[C@H](C)C[C@H](N(C)C)[C@H]2O)[C@](C)(O)C[C@@H](C)C(=O)[C@H](C)[C@@H](O)[C@]1(C)O | 4.38
CO[C@@]1(NC(=O)C2SC(=C(C(N)=O)C(=O)O)S2)C(=O)N2C(C(=O)O)=C(CSc3nnnn3C)CS[C@@H]21 (stereo partly specified) | 0.78
CC(=O)CC(c1ccccc1)c1c(O)c2ccccc2oc1=O (stereo unspecified) | 0.0216

Entry "CO/N=C(\C(=O)N[C@@H]1C(=O)N2C(C(=O)O)=C(CSc3nc(C)c(CC(=O)O)s3)CS[C@H]12)c1csc(N)n1" ; clearance = 0.066

Entry "O=C1CN=C(c2ccccc2Cl)c2cc([N+](=O)[O-])ccc2N1" ; clearance = 1.26

Entry CC(C)N(CCC(C(N)=O)(c1ccccc1)c1ccccn1)C(C)C (stereo unspecified) [DISOPYRAMIDE] ; clearance = 2.04

Entry "C#C[C@]1(O)CC[C@H]2[C@@H]3CCc4cc(O)ccc4[C@H]3CC[C@@]21C" ; clearance = 3.84

----------
# log10(clearance) annotations
# runDescription: Clearance in monkey after iv administration
# Type: ADME, organism-based
# conditionDetails: macaca, in vivo
Please interpret these as log10 of clearance where clearance is in mL/min/kg.

Below: 3 compounds and their reported log10(clearance).
compound | log10(clearance)
O=C(O)C[C@H](NC(=O)CP(=O)(O)O)C(=O)O | 0.57
O=C(c1ccccc1)c1ccc2n1CCC2C(=O)O (centres undefined) | -0.22
Cc1cc(O)c(C(=O)N[C@@H](C(=O)N[C@@H]2C(=O)N3C(C(=O)O)=C(CSc4nnnn4C)CS[C@H]23)c2ccc(O)cc2)cn1 [CEFPIRAMIDE] | -0.28

Entry "N[C@H](C(=O)O)[C@@H]1CC(Cl)=NO1" ; log10(clearance) = 0.52

Entry "COc1cccc2c1C(=O)c1c(O)c3c(c(O)c1C2=O)C[C@@](O)(C(=O)CO)C[C@@H]3O[C@H]1C[C@H](N)[C@H](O)[C@H](C)O1" ; log10(clearance) = 1.45

Entry "Cc1cccnc1NS(=O)(=O)c1ccc(C#Cc2ccc(O)c(C(=O)O)c2)cc1" ; log10(clearance) = 0.30

Entry CN(C)CCCC1(c2ccc(F)cc2)OCc2cc(C#N)ccc21 (centres undefined) ; log10(clearance) = 1.59

Entry "O=c1ccc2ccccc2o1" ; log10(clearance) = 1.53

Entry "CO/N=C(\C(=O)N[C@@H]1C(=O)N2C(C(=O)O)=CCS[C@H]12)c1csc(N)n1" ; log10(clearance) = 0.77

Entry CO[C@@]1(NC(=O)C(C(=O)[O-])c2ccc(O)cc2)C(=O)N2C(C(=O)[O-])=C(CSc3nnnn3C)CO[C@@H]21.[Na+].[Na+] (some centres undefined) [MOXALACTAM DISODIUM] ; log10(clearance) = 0.30

Entry "CC[C@]1(O)C[C@H]2CN(CCc3c([nH]c4ccccc34)[C@@](C(=O)OC)(c3cc4c(cc3OC)N(C=O)[C@H]3[C@@](O)(C(=O)OC)[C@H](OC(C)=O)[C@]5(CC)C=CCN6CC[C@]43[C@@H]65)C2)C1" ; log10(clearance) = 0.68

Entry "CC[C@H]1OC(=O)[C@H](C)[C@@H](O[C@H]2C[C@@](C)(OC)[C@@H](O)[C@H](C)O2)[C@H](C)[C@@H](O[C@@H]2O[C@H](C)C[C@H](N(C)C)[C@H]2O)[C@](C)(O)C[C@@H](C)C(=O)[C@H](C)[C@@H](O)[C@]1(C)O" ; log10(clearance) = 1.15

Entry "C[C@@H](O)[C@H]1C(=O)N2C(C(=O)O)=C(COC(N)=O)S[C@H]12" ; log10(clearance) = 0.67

Entry "C[C@]12C=CC(=O)C=C1CC[C@@H]1[C@@H]2C(=O)C[C@@]2(C)[C@H]1CC[C@]2(O)C(=O)CO" ; log10(clearance) = 1.11

----------
# runDescription: Clearance in monkey after iv administration
# Assay type: ADME, organism-based
# conditionDetails: macaca, in vivo
assayReadout: clearance (L/h/kg)
Note: unit L/h/kg is implicit; provide only the numeric part.

Below: 5 compounds and their reported clearance.
compound | clearance, L/h/kg
CN(Cc1cnc2nc(N)nc(N)c2n1)c1ccc(C(=O)N[C@@H](CCC(=O)O)C(=O)O)cc1 [METHOTREXATE] | 0.48
C#C[C@]1(O)CC[C@H]2[C@@H]3CCc4cc(O)ccc4[C@H]3[C@@H](OC)C[C@@]21C | 0.192
COC(=O)[C@H]1[C@@H](OC(=O)c2ccccc2)C[C@@H]2CC[C@H]1N2C | 3.84
CCCC(CCC)C(=O)O | 0.24
O=P(O)(O)C(Sc1ccc(Cl)cc1)P(=O)(O)O | 0.0498

Entry CC1=NC(=O)C(CCN(C(C)C)C(C)C)(c2ccccc2)C2CCCCN12 (stereo not drawn) [ACTISOMIDE] ; clearance = 0.984

Entry "O=C(O)Cc1ccccc1Nc1c(Cl)cccc1Cl" ; clearance = 0.522

Entry "O=C1CN=C(c2ccccc2Cl)c2cc([N+](=O)[O-])ccc2N1" ; clearance = 0.84

Entry "C#C[C@]1(O)CC[C@H]2[C@@H]3CCc4cc(O)ccc4[C@H]3CC[C@@]21C" ; clearance = 1.02

----------
# log10 of Vd annotations
# runDescription: Volume of distribution at steady state in human after iv administration
# Assay type: ADME, organism-based
# conditionDetails: in vivo, read-out: Vdss
Please interpret these as log10 of Vd where Vd is in L/kg.

Below: 4 compounds and their reported log10 of Vd.
compound | assayReadout | experimentalResult
CO/N=C(\C(=O)N[C@@H]1C(=O)N2C(C(=O)[O-])=C(C[n+]3ccn4ncccc43)CS[C@H]12)c1nsc(N)n1 | log10 of Vd | -0.57
CC1CCCC(C)N1CCCC(O)(c1ccccc1)c1ccccn1 (stereo not drawn) | log10 of Vd | 0.11
NCC1(CC(=O)O)CCCCC1 | log10 of Vd | -0.09
CN(C)C(=O)CCSC(SCCC(=O)O)c1cccc(/C=C/c2ccc3ccc(Cl)cc3n2)c1 (stereo not drawn) | log10 of Vd | -1.05

Entry "Cn1c(=O)c2c(ncn2C)n(C)c1=O" ; log10 of Vd = -0.14

Entry CN(Cc1cnc2nc(N)nc(N)c2n1)c1ccc(C(=O)N[C@@H](CCC(=O)O)C(=O)O)cc1 [METHOTREXATE] ; log10 of Vd = -0.17

Entry "O=C(O)C[C@H](NC(=O)CP(=O)(O)O)C(=O)O" ; log10 of Vd = -0.46

Entry "CC(C)(C)S(=O)(=O)C[C@@H](Cc1ccccc1)C(=O)N[C@@H](Cc1cnc[nH]1)C(=O)N[C@@H](CC1CCCCC1)[C@@H](O)[C@@H](O)C1CC1" ; log10 of Vd = -0.08

----------
# Vd annotations
# runDescription: Volume of distribution at steady state in monkey after iv administration
# Format: ADME, organism-based
# conditionDetails: macaca, in vivo, read-out: Vdss

Below: 4 compounds and their reported Vd.
compound | Vd
CN(Cc1cnc2nc(N)nc(N)c2n1)c1ccc(C(=O)N[C@@H](CCC(=O)O)C(=O)O)cc1 [METHOTREXATE] | 1.2 L/kg
O=C(O)Cc1ccccc1Nc1c(Cl)cccc1Cl | 0.17 L/kg
COc1ccc2c(c1)c(CC(=O)O)c(C)n2C(=O)c1ccc(Cl)cc1 | 1.8 L/kg
CN1CCC[C@H]1c1cccnc1 | 1.5 L/kg

# context switch: different compound, same Vd
Entry CC(C)NCC(O)COc1cccc2ccccc12 (stereo not given) ; Vd = 0.6 L/kg

----------
# runDescription: Clearance in monkey after iv administration
# Assay type: ADME, organism-based
# conditionDetails: macaca, in vivo
# clearance annotations
Note: unit mL/min/kg is implicit; provide only the numeric part.

Below: 3 compounds and their reported clearance.
compound | experimentalResult
CN1CCN(c2c(F)cc3c(=O)c(C(=O)O)cn(CCF)c3c2F)CC1 [FLEROXACIN] | 4
NC(=O)c1cc[n+](COC[n+]2ccccc2/C=N/O)cc1 [HI-6] | 8.6
COc1ccc2c(c1)c(CC(=O)O)c(C)n2C(=O)c1ccc(Cl)cc1 [INDOMETHACIN] | 13

Entry CC1CCCC(C)N1CCCC(O)(c1ccccc1)c1ccccn1 (centres undefined) [PIRMENOL] ; clearance = 5

Entry CN(C)C(=O)CCSC(SCCC(=O)O)c1cccc(/C=C/c2ccc3ccc(Cl)cc3n2)c1 (centres undefined) [MK-571] ; clearance = 1.9

Entry CCCCCNC(=O)c1coc([C@H]2[C@@H](Cc3ccccc3CCC(=O)O)[C@@H]3CC[C@H]2O3)n1 [IFETROBAN] ; clearance = 19

Entry Cc1cc(=O)n(-c2ccccc2)n1C [ANTIPYRINE] ; clearance = 4.4

Entry N[C@@H](Cc1ccc(O)c(O)c1)C(=O)O [LEVODOPA] ; clearance = 17

Entry O=C1NC(=O)C(c2ccccc2)(c2ccccc2)N1 [PHENYTOIN] ; clearance = 7.9
